- target.desc: mu opioid receptor (MOR) (Homo sapiens)
- Sequence (P35372 whole entry): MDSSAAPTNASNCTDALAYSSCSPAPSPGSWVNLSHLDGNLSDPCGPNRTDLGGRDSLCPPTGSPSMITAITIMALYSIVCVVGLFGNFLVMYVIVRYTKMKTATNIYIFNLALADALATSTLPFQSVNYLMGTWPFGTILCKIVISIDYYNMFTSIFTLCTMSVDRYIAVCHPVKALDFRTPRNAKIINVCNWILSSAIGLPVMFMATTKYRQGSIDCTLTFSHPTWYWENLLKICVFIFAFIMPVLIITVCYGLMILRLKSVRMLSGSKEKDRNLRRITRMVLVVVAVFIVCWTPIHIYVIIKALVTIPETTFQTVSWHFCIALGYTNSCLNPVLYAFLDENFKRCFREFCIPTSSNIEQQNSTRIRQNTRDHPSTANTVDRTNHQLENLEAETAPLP
- method.description: PathHunter β-arrestin recruitment assay, PAM mode with EC20 endomorphin-1
- Format: cell-based
- condition.set: β-arrestin recruitment; read-out: β-arr. EC50
pEC50: −log10 of the molar value.
Provide the reported pEC50 of each item.

Problem: Name the recorded pEC50 of the item Fc1ccc(C2CCCCN2Cc2cc(Cl)ccn2)cc1Cl (centres unmarked) [compound 145] in your answer.
Result: < 5.68

Problem: Return pEC50 for the following compound: Fc1ccc(Cl)cc1CN1CCOCC1c1cccc(C(F)(F)F)c1 (racemic) [Compound 193]
Result: 5.68 to 6.15

Problem: Give recorded pEC50. Fc1cnc(Cl)nc1N1CCOCC1c1cccc(C(F)(F)F)n1 (racemic) [Compound 186]
Result: < 5.68

Problem: Return the recorded pEC50 value; entry: Fc1c(C2CCCCN2c2ccnc(Cl)n2)cccc1C(F)(F)F (centres unmarked) [compound 365]
Result: > 6.15

Problem: Tell me pEC50 reported for C=C1CCN(c2nc(Cl)ncc2F)C(c2cc(F)cc(C(F)(F)F)c2)C1 (centres unmarked) [compound 200]
Result: > 6.15

* * *

Give pEC50 for every item shown.
- target.desc: UniProt P35372
- method.description: Hit Hunter cAMP signaling assay (adenylyl cyclase inhibition), PAM mode with EC20 endomorphin-1
- Type: cell-based
- condition.set: cAMP EC50, adenylyl cyclase inhibition
pEC50: −log10 of the molar value.

Problem: Quote pEC50 with test system UniProt P35372 for Fc1ccc(Cl)nc1N1CCCCC1c1cncnc1 (stereo not shown) [compound 382]
Result: > 6.15

Problem: For UniProt P35372, give the measured pEC50 of the entry Fc1ccc(C2CCCCN2Cc2cccc(Cl)n2)cc1Cl (stereo not shown) [compound 1]
Result: > 6.15

Problem: # assay system UniProt P35372: give pEC50 of FC(F)(F)c1cccc(C2CCCCN2Cc2cccc(Cl)c2)n1 (stereo not shown) [compound 170]
Result: > 6.15

Problem: System UniProt P35372. Read-out pEC50. Item FC(F)(F)c1cccc(CN2CCCCC2c2cccc(C(F)(F)F)n2)c1 (stereo not shown) [compound 175] . Report value.
Result: < 5.68

Problem: Check UniProt P35372 data and give pEC50 for COc1cc(C2CCCCN2c2nc(Cl)ncc2F)ccn1 (stereo not shown) [compound 275] .
Result: < 5.68

Problem: Give the observed pEC50 of Fc1cnc(Cl)nc1N1CCCCC1c1cc(C(F)(F)F)c2[nH]cnc2c1 (stereo not shown) [compound 417] for UniProt P35372.
Result: > 6.15

Problem: # assay system UniProt P35372: give pEC50 of COc1ccc(C2CCCCN2Cc2cccc(Cl)c2F)cc1Br (stereo not shown) [compound 245]
Result: < 5.68

Problem: System UniProt P35372. Read-out pEC50. Item Fc1cnc(Cl)nc1N1CCCCC1c1cccc2ncnn12 (stereo not shown) [compound 389] . Report value.
Result: > 6.15

Problem: Lab note: record pEC50 of Cc1ccc(N2CCCCC2c2ccc(F)c(Cl)c2)cc1 (stereo not shown) [compound 458] tested on UniProt P35372.
Result: < 5.68

Problem: Fill in pEC50 for Fc1cc(C2CCCCN2c2nc(Cl)ncc2F)cc(C(F)(F)F)c1 (stereo not shown) [compound 122] tested with UniProt P35372.
Result: > 6.15

Data provenance: patent US11071731B2
